# Test system: male mice
# TEST METHOD NOTES: extension of sleeping time of depressant drugs by synergists
# Assay type: in vivo, male mice (Swiss albino white)
# CONDITION: Secobarbital 37 mg/kg; synergist 74 mg/kg one hour prior
Here, each record is paired with measured Mean Sleeping Time, Secobarbital data.
# output: bare number, implied unit min

q: Recorded Mean Sleeping Time, Secobarbital of `C#CCON=Cc1ccc(N(C)C)cc1` , please.
a: 30

q: Recorded Mean Sleeping Time, Secobarbital of `C#CCON=C(C)c1ccc(Cl)cc1` , please.
a: 62

q: Recorded Mean Sleeping Time, Secobarbital of C#CCOC(c1ccc(Cl)cc1Cl)C(C)[N+](=O)[O-] (stereo not shown) , please.
a: 56

q: Recorded Mean Sleeping Time, Secobarbital of `C#CCOCc1cccc([N+](=O)[O-])c1Cl` , please.
a: 31

q: Recorded Mean Sleeping Time, Secobarbital of C#CCOC(c1ccc(Cl)cc1)C(C)[N+](=O)[O-] (stereo not shown) , please.
a: 112
